meta.source: the Immune Epitope Database (IEDB)

# assay.target: HLA-A*24:03
# run.description: IEDB peptide-MHC binding, purified MHC/direct/fluorescence; filed as Kd, often an IC50 or EC50 that approximates it; bounds were set here for any values at or beyond the usual limits of such assays
# condition.info: source organism: Influenza A virus (A/tiger/Thailand/CU-LV/2004(H5N1))
experimental.endpoint: pKd
Expect pKd as a plain number equal to -log10 of the molar concentration.

Query string: pKd lookup needed for DWSGYSGSF , thanks.
Result string: 7.14

###

# assay.target: HLA-B*15:09
# run.description: IEDB peptide-MHC binding, purified MHC/direct/fluorescence; filed as Kd, often an IC50 or EC50 that approximates it; bounds were set here for any values at or beyond the usual limits of such assays
# condition.info: source organism: Variola virus
pKd: −log10 of the molar value.
experimental.endpoint: pKd

Query string: pKd lookup needed for KYFDDVTAF , thanks.
Result string: ≤ 4.70

###

# assay.target: HLA-A*24:02
# run.description: IEDB peptide-MHC binding, purified MHC/competitive/fluorescence; bounds were set here for any values at or beyond the usual limits of such assays
# condition.info: source organism: Vaccinia virus Copenhagen
experimental.endpoint: pIC50
Expect pIC50 as a plain number equal to -log10 of the molar concentration.

Query string: API: value(readout= pIC50, system= HLA-A*24:02, query= KAIITPIVF )
Result string: 4.95

###

# assay.target: HLA-A*24:03
# run.description: IEDB peptide-MHC binding, purified MHC/direct/fluorescence; filed as Kd, often an IC50 or EC50 that approximates it; bounds were set here for any values at or beyond the usual limits of such assays
# condition.info: source organism: Burkholderia mallei ATCC 23344
pKd: −log10 of the molar value.
experimental.endpoint: pKd

Query string: pKd lookup needed for MVFGRFSFA , thanks.
Result string: ≤ 4.70

###

# assay.target: HLA-B*40:01
# run.description: IEDB peptide-MHC binding, purified MHC/direct/fluorescence; filed as Kd, often an IC50 or EC50 that approximates it; bounds were set here for any values at or beyond the usual limits of such assays
# condition.info: source organism: Orthohantavirus hantanense
experimental.endpoint: pKd
Expect pKd as a plain number equal to -log10 of the molar concentration.

Query string: pKd lookup needed for REINAHEGQ , thanks.
Result string: 6.83

###

# assay.target: HLA-A*24:03
# run.description: IEDB peptide-MHC binding, purified MHC/competitive/fluorescence; filed as Kd, often an IC50 or EC50 that approximates it; bounds were set here for any values at or beyond the usual limits of such assays
# condition.info: source organism: Influenza A virus (A/swine/Hong Kong/81/1978(H3N2))
experimental.endpoint: Kd (nM)
The response must be a number in nM with no trailing unit.

Query string: Kd lookup needed for KFHQIEKEF , thanks.
Result string: 0.6

###

# assay.target: HLA-A*24:02
# run.description: IEDB peptide-MHC binding, purified MHC/competitive/fluorescence; bounds were set here for any values at or beyond the usual limits of such assays
# condition.info: source organism: Zaire ebolavirus
experimental.endpoint: log10 of IC50 (log10 of the value in µM)
Record value = log10 of IC50 given in µM.

Query string: log10 of IC50 lookup needed for KRTLAAMPE , thanks.
Result string: 1.63

Query string: log10 of IC50 lookup needed for EYPPWLTEK , thanks.
Result string: 0.98

Query string: log10 of IC50 lookup needed for TSPRMLTPI , thanks.
Result string: 0.48

Query string: log10 of IC50 lookup needed for KIDQIIHDF , thanks.
Result string: 1.67

Query string: log10 of IC50 lookup needed for PWLTEKEAM , thanks.
Result string: -0.36

Query string: log10 of IC50 lookup needed for LFLPKLVVG , thanks.
Result string: 0.19

Query string: log10 of IC50 lookup needed for LEHGLFPQL , thanks.
Result string: 0.92

Query string: log10 of IC50 lookup needed for IQYPTAWQS , thanks.
Result string: 1.53

Query string: log10 of IC50 lookup needed for ISFQQTNAM , thanks.
Result string: 0.99

Query string: log10 of IC50 lookup needed for VIYRGTTFA , thanks.
Result string: 1.66

Query string: log10 of IC50 lookup needed for TFAEGVVAF , thanks.
Result string: -0.67
